# shrunken log2 fold change per entry
- Tested on: Escherichia coli TOP10;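 note: peptides expressed intracellularly from a pBAD plasmid library in pooled LB shake-flask culture, induced with 0.3% L-arabinose, DNA abundance read by NGS, three biological replicates, DESeq2 with apeglm shrinkage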
- ASSAY_COMMENT: shrunken log2 fold change of peptide-encoding DNA abundance (4.5 h post-induction vs induction); higher = less antimicrobial activity (less host growth inhibition)
- CONDITION_PARAMETERS: time post-induction: 4.5 h; library: site-saturation at positions 5, 18, 19, 20
Response field accepts a number only; no unit should be typed.

Worked examples follow.
ITEM_SEQUENCE: RRIRFRPPRLPRPRPRPAMSPRP
MEASURED: -0.302
//
ITEM_SEQUENCE: RRIRNRPPRLPRPRPRPRCMPRP
MEASURED: -0.5
//
ITEM_SEQUENCE: RRIRNRPPRLPRPRPRPHRRPRP
MEASURED: 0.143

// switching to the query sequence
Problem: Consider the sequence RRIRDRPPRLPRPRPRPINIPRP and give its measured shrunken log2 fold change.
Result: -0.282
